# System: E. cloacae 963
# test method notes: in vitro antibacterial activity, agar plate dilution method (MIC)
# Format: cell-based
# condition description: Enterobacter cloacae, 963, 16 h, read-out: Minimum Inhibitory Concentration (MIC), E. cloacae 963; 10^6 CFU/ml
In plain terms, low MIC, meaning strictly below 0.4 µg/mL, gives true, and everything else gives false.

Lab note: MIC threshold 0.4 µg/mL. Does this molecule come in strictly under it? CC(C)(O/N=C(\C(=O)N[C@@H]1C(=O)N2C(C(=O)O)=C(CSc3nnc(-c4ccccc4)o3)CS[C@H]12)c1csc(N)n1)C(=O)O [compound 3, reference compound]
false

# repeat for `CC(C)(O/N=C(\C(=O)N[C@@H]1C(=O)N2C(C(=O)O)=C(CSc3nnc(-c4ccc(O)c(O)c4)o3)CS[C@H]12)c1csc(N)n1)C(=O)O`
true

----------
# Tested on: K. pneumoniae No. 42
# test method notes: in vitro antibacterial activity, agar plate dilution method (MIC)
# Assay type: cell-based
# condition description: Klebsiella pneumoniae, NO.42, 16 h, read-out: Minimum Inhibitory Concentration (MIC), *K. pneumoniae No. 42, lactamase-producing strain; 10^6 CFU/ml
assay metric: log10(MIC) (log10 of the value in µg/mL)
Form field - Quantity: MIC; Unit: µg/mL; Scale: log10

{"columns": ["compound", "measured target", "reading"],
 "data": [
  ["CCON=C(C(=O)NC1C(=O)N2C(C(=O)O)=C(CSc3nc(C(=O)O)c(-c4ccc(O)c(O)c4)s3)CSC12)c1csc(N)n1 (stereo not drawn)", "K. pneumoniae No. 42", -1.00],
  ["CON=C(C(=O)NC1C(=O)N2C(C(=O)O)=C(CSc3nc(-c4ccc(O)c(O)c4)c(CC(=O)O)s3)CSC12)c1csc(N)n1 (stereo not drawn)", "K. pneumoniae No. 42", -1.00],
  ["CON=C(C(=O)NC1C(=O)N2C(C(=O)O)=C(CSc3ncc(-c4ccc(O)c(O)c4)o3)CSC12)c1csc(N)n1 (stereo not drawn)", "K. pneumoniae No. 42", -1.60],
  ["CO/N=C(\\C(=O)N[C@@H]1C(=O)N2C(C(=O)O)=C(CSc3nnc(-c4ccc(O)c(O)c4)s3)CS[C@H]12)c1csc(N)n1", "K. pneumoniae No. 42", -1.90],
  ["CC(C)(O/N=C(\\C(=O)N[C@@H]1C(=O)N2C(C(=O)O)=C(CSc3nnc(-c4ccccc4)o3)CS[C@H]12)c1csc(N)n1)C(=O)O [compound 3, reference compound]", "K. pneumoniae No. 42", 0.49]
]}

Please turn your attention to the following entry.
Look up log10(MIC) for this compound: CC(C)(ON=C(C(=O)NC1C(=O)N2C(C(=O)O)=C(CSc3nc(C(=O)O)c(-c4ccc(O)c(O)c4)s3)CSC12)c1csc(N)n1)C(=O)O (stereo not drawn)
-1.30

----------
Overview of recorded MIC for various compounds
# Test system: E. cloacae 963
# test method notes: in vitro antibacterial activity, agar plate dilution method (MIC)
# Assay type: cell-based
# condition description: Enterobacter cloacae, 16 h; E. cloacae 963; 10^6 CFU/ml; read-out: Minimum Inhibitory Concentration (MIC)
Structures can show the parent of a compound that is named as a salt.

Known MIC results, listed for orientation:
{"columns": ["compound", "measured target", "MIC"],
 "data": [
  ["CC(C)ON=C(C(=O)NC1C(=O)N2C(C(=O)O)=C(CSc3nc(-c4ccc(O)c(O)c4)cs3)CSC12)c1csc(N)n1 (stereo not drawn)", "E. cloacae 963", "0.1 µg/mL"],
  ["CO/N=C(\\C(=O)N[C@@H]1C(=O)N2C(C(=O)O)=C(CSc3nnc(-c4ccccc4)o3)CS[C@H]12)c1csc(N)n1 [compound 1, trifluoroacetate, reference compound]", "E. cloacae 963", "1.56 µg/mL"]
]}

Please turn your attention to the following entry.
Look up MIC for this compound: CO/N=C(\C(=O)N[C@@H]1C(=O)N2C(C(=O)O)=C(CSc3nnc(-c4ccc(O)cc4)o3)CS[C@H]12)c1csc(N)n1 [compound 2, reference compound]
1.56 µg/mL

----------
# System: P. vulgaris No. 33
# test method notes: in vitro antibacterial activity, agar plate dilution method (MIC)
# Format: cell-based
# condition description: Proteus vulgaris, NO.33, 16 h, read-out: Minimum Inhibitory Concentration (MIC), *P. vulgaris No. 33, lactamase-producing strain; 10^6 CFU/ml
In plain terms, low MIC, meaning strictly below 0.03 µg/mL, gives 1 (yes), and everything else gives 0 (no).

Solved entries (count: 5):
{"columns": ["molecule", "measured target", "classification"],
 "data": [
  ["CC(C)(O/N=C(\\C(=O)N[C@@H]1C(=O)N2C(C(=O)O)=C(CSc3ncc(-c4ccc(O)c(O)c4)o3)CS[C@H]12)c1csc(N)n1)C(=O)O [Ex. 64]", "P. vulgaris No. 33", "1 (yes)"],
  ["CO/N=C(\\C(=O)N[C@@H]1C(=O)N2C(C(=O)O)=C(CSc3nnc(-c4ccc(O)c(O)c4)s3)CS[C@H]12)c1csc(N)n1 [Ex. 25]", "P. vulgaris No. 33", "1 (yes)"],
  ["Nc1nc(/C(=N/OC2(C(=O)O)CC2)C(=O)N[C@@H]2C(=O)N3C(C(=O)O)=C(CSc4nnc(-c5ccc(O)c(O)c5)s4)CS[C@H]23)cs1 [Ex. 35]", "P. vulgaris No. 33", "1 (yes)"],
  ["CO/N=C(\\C(=O)N[C@@H]1C(=O)N2C(C(=O)O)=C(CSc3nc(-c4ccccc4)cs3)CS[C@H]12)c1csc(N)n1 [compound 9, reference compound]", "P. vulgaris No. 33", "0 (no)"],
  ["CC(C)(O/N=C(\\C(=O)N[C@@H]1C(=O)N2C(C(=O)[O-])=C(C[n+]3ccccc3)CS[C@H]12)c1csc(N)n1)C(=O)O [ceftazidime, reference compound]", "P. vulgaris No. 33", "0 (no)"]
]}

Lab note: MIC threshold 0.03 µg/mL. Does this molecule come in strictly under it? CO/N=C(\C(=O)N[C@@H]1C(=O)N2C(C(=O)O)=C(CSc3nnc(-c4ccc(OC(C)=O)c(OC(C)=O)c4)o3)CS[C@H]12)c1csc(N)n1 [Ex. 4]
1 (yes)

# repeat for Nc1nc(/C(=N/OCc2ccccc2CC(=O)O)C(=O)N[C@@H]2C(=O)N3C(C(=O)O)=C(CSc4nnc(-c5ccc(O)c(O)c5)o4)CS[C@H]23)cs1 [Ex. 23]
1 (yes)

# repeat for CC(C)(O/N=C(\C(=O)N[C@@H]1C(=O)N2C(C(=O)O)=C(CSc3nc(C(=O)O)c(-c4ccccc4)s3)CS[C@H]12)c1csc(N)n1)C(=O)O [compound 14, reference compound]
1 (yes)

# repeat for CO/N=C(\C(=O)N[C@@H]1C(=O)N2C(C(=O)O)=C(CSc3nnc(-c4ccc(O)c(O)c4)o3)CS[C@H]12)c1csc(N)n1 [Ex. 1]
1 (yes)

# repeat for CC(C)(O/N=C(\C(=O)N[C@@H]1C(=O)N2C(C(=O)O)=C(CSc3ncc(-c4ccc(O)cc4)o3)CS[C@H]12)c1csc(N)n1)C(=O)O [compound 24, reference compound]
0 (no)

# repeat for CC(C)O/N=C(\C(=O)N[C@@H]1C(=O)N2C(C(=O)O)=C(CSc3nnc(-c4ccc(O)c(O)c4)o3)CS[C@H]12)c1csc(N)n1 [Ex. 7]
1 (yes)

----------
Overview of recorded MIC for various molecules
# System: P. vulgaris No. 33
# test method notes: in vitro antibacterial activity, agar plate dilution method (MIC)
# Assay type: cell-based
# condition description: Proteus vulgaris, 16 h; *P. vulgaris No. 33, lactamase-producing strain; 10^6 CFU/ml; read-out: Minimum Inhibitory Concentration (MIC)
# Procedure: The in vitro antibacterial activities of the compounds of the present invention against various microorganisms, were measured by the following agar plate dilution method. One platinum loopfull of each test microorganism incubated overnight in Mueller Hinton broth, was inoculated to Mueller Hinton agar (inoculum size: 10^6 CFU/ml). […] After incubation at 37° C. for 16 hours, the minimum inhibitory concentrations (MIC: μg/ml) were measured.
Counter-ions that a name gives are not always drawn.

{"columns": ["molecule", "assay metric", "reading"],
 "data": [
  ["CO/N=C(\\C(=O)N[C@@H]1C(=O)N2C(C(=O)O)=C(CSc3nnc(-c4ccccc4)o3)CS[C@H]12)c1csc(N)n1 [compound 1, trifluoroacetate, reference compound]", "MIC", "0.78 µg/mL"],
  ["CC(=O)Oc1ccc(-c2nc(SCC3=C(C(=O)O)N4C(=O)[C@@H](NC(=O)/C(=N\\OC(C)(C)C(=O)O)c5csc(N)n5)[C@H]4SC3)sc2CC(=O)O)cc1 [compound 20, reference compound]", "MIC", "0.1 µg/mL"]
]}

Look up MIC for this molecule: CC(C)(ON=C(C(=O)NC1C(=O)N2C(C(=O)O)=C(CSc3nc(C(=O)O)c(-c4ccc(O)c(O)c4)s3)CSC12)c1csc(N)n1)C(=O)O (stereo not drawn)
< 0.006 µg/mL

Recorded values, source patent US5061794A.
